- System: Escherichia coli TOP10;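 also: peptides expressed intracellularly from a pBAD plasmid library in pooled LB shake-flask culture, induced with 0.3% L-arabinose, DNA abundance read by NGS, three biological replicates, DESeq2 with apeglm shrinkage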
- Test summary: shrunken log2 fold change of peptide-encoding DNA abundance (4.5 h post-induction vs induction); higher = less antimicrobial activity (less host growth inhibition)
- Run parameters: time post-induction: 4.5 h; library: site-saturation at positions 5, 18, 19, 20
Listed next: entries and their corresponding shrunken log2 fold change.
Hey, just send me the number, nothing else.

Problem: For the sequence shown here, "RRIRSRPPRLPRPRPRPCLKPRP" , give the reported shrunken log2 fold change.
Result: 0.0091

Problem: Recorded shrunken log2 fold change for "RRIRIRPPRLPRPRPRPGKVPRP" , please?
Result: -0.621

Problem: Any idea what its shrunken log2 fold change is? The sequence is "RRIRWRPPRLPRPRPRPEGRPRP"
Result: 0.65

Problem: Would you mind telling me what shrunken log2 fold change value was observed for "RRIRLRPPRLPRPRPRPLTSPRP" ?
Result: -0.179

***
Problem: Name the reported shrunken log2 fold change value associated with the sequence "RRIRSRPPRLPRPRPRPHMGPRP"
Result: -0.0366

Problem: Can you share its shrunken log2 fold change? I mean this sequence: "RRIRLRPPRLPRPRPRPCLHPRP"
Result: -0.113

Problem: Give its shrunken log2 fold change value. Item: "RRIRRRPPRLPRPRPRPHGWPRP"
Result: 0.784
